Kindly state IC50 for each of the entries shown.
- Tested target: UniProt P57059

Some solved entries appear below for comparison.
Compound	Tested target	IC50
COc1cc(-c2cnc3cc(OCCCN4CC5(CC(O)C5)C4)ccn23)cc(OC(F)F)c1C(=O)NC1CC1 [compound 297]	UniProt P57059	10 to 100 nM
COc1cc(-c2cnc3cc(OC[C@H]4CCCNC4)ccn23)cc(OC(F)F)c1C(=O)NC1CC1 [Cpd 315]	UniProt P57059	10 to 100 nM
COc1cc(-c2cnc3cc(OCCC4CCCN4C4COC4)ccn23)cc(OC(F)F)c1C(=O)NC1CC1 (stereo not shown) [compound 299]	UniProt P57059	10 to 100 nM

For every item below, please supply its IC50.
1. COc1cc(-c2cnc3cc(OC[C@@H]4CCCN(C5COC5)C4)ccn23)cc(OC(F)F)c1C(=O)NC1CC1 [compound 339]
2. COc1cc(-c2cnc3cc(OCCN4CCOCC4)ccn23)cc2cc[nH]c(=O)c12 [compound 210]
3. COc1cc(-c2cnc3cc(OC[C@H]4CCCN4C)ccn23)cc2c1C(=O)N(CC(F)(F)F)CC2 [compound 124]

Response given:
["10 to 100 nM", "10 to 100 nM", "> 500 nM"]

Challenge: For UniProt P57059, give the measured IC50 of the entry COc1cc(-c2cnc3cc(OCCNc4ccncn4)ccn23)cc(OC(F)F)c1C(=O)NC1CC1 [compound 369]
Response given: 0.01 to 10 nM

---

- Tested target: SIK2 (Homo sapiens, UniProt Q9H0K1)
- Construct: purchased ThermoFisher Scientific PV4792
- Sequence (Q9H0K1 whole entry): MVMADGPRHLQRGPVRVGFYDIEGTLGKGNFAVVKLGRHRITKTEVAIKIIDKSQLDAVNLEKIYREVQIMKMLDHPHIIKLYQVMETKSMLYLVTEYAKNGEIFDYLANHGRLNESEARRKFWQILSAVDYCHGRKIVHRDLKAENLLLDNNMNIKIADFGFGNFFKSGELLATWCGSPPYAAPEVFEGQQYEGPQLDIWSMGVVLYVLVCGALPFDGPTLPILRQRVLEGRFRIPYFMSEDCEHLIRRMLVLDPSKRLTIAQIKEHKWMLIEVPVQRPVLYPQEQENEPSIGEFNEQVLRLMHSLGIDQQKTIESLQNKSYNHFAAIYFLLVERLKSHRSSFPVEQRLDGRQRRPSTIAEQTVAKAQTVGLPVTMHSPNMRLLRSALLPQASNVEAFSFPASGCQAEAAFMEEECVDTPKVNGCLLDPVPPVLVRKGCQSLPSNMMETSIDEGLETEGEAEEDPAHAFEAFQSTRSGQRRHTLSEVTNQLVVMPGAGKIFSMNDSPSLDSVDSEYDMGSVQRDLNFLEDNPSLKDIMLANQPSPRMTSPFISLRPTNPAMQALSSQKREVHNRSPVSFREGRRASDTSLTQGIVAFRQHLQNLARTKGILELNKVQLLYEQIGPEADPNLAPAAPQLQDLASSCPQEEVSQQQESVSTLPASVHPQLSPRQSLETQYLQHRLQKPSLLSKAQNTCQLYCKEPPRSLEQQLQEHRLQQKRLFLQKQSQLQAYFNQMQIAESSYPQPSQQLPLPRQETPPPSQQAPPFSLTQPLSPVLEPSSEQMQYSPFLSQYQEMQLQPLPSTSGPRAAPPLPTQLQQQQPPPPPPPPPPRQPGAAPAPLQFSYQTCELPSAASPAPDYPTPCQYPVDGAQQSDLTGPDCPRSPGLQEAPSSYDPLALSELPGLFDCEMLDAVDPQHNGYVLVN
- Test protocol: ADP-Glo kinase assay, SIK2
- Assay type: biochemical
- Condition description: ADP-Glo SIK kinase assay
pIC50: −log10 of the molar value.
Outcome measure: pIC50

Compound string	pIC50
COc1cc(-c2cnc3cc(OCCCN(C)C)ccn23)cc(OC(F)F)c1C(=O)NC1CC1	8.00 to 11.00
COc1cc(-c2cnc3cc(OC4CCN(C)CC4)ccn23)cc(OC(F)F)c1C(=O)NC1CC1	7.00 to 8.00

For every item below, please supply its pIC50.
1. COc1cc(-c2cnc3cc(OCCN4CCN(C(C)C)CC4)ccn23)cc(OC(F)F)c1C(=O)NC1CC1
2. COc1cc(-c2cnc3cc(OCCCN4CCOCC4)ccn23)cc(OC(F)F)c1C(=O)NC1CC1

Response given:
8.00 to 11.00
8.00 to 11.00

---

Measured IC50 on SIK1 (Homo sapiens, UniProt P57059) follows.
Sequence (P57059 whole entry): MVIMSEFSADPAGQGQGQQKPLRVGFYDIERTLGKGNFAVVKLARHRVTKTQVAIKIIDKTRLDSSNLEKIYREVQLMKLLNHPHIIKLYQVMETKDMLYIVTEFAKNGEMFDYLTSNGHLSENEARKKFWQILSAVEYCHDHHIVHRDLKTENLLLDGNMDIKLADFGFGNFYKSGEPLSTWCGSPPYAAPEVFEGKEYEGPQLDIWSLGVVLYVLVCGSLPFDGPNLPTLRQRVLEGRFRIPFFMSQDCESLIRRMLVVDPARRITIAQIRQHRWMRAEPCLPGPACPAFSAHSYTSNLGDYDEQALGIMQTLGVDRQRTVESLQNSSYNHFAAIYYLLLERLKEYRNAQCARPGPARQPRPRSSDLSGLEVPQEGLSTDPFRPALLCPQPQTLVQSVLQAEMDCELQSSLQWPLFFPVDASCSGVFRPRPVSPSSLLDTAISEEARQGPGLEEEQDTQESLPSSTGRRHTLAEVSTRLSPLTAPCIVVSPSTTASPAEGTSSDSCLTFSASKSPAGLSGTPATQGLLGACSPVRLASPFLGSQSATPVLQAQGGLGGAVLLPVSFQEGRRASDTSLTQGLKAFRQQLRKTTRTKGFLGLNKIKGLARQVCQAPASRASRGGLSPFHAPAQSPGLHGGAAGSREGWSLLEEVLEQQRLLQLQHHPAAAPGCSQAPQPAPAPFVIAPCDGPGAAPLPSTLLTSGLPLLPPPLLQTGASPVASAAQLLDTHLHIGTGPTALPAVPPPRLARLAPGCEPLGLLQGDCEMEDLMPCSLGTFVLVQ

Compound	IC50
COc1cc(-c2cnc3cc(OC[C@@H]4CCN(C5COC5)C4)ccn23)cc(OC(F)F)c1C(=O)NC1CC1	10 to 100 nM

For every item below, please supply its IC50.
1. COc1cc(-c2cnc3cc(OCC4CCCCN4S(C)(=O)=O)ccn23)cc(OC(F)F)c1C(=O)NC1CC1 (stereo not shown)
2. COc1cc(-c2cnc3cc(OCCN4C5CCC4COC5)ccn23)cc2c1C(=O)N(CC(F)(F)F)CC2
3. COC(=O)[C@@H]1CN(CCOc2ccn3c(-c4cc(OC)c(C(=O)NC5CC5)c(OC(F)F)c4)cnc3c2)CCO1
4. CCN(CC)CCOc1ccn2c(-c3cc4c(c(OC)c3)C(=O)N(CC(F)(F)F)CC4)cnc2c1
5. COc1cc(-c2cnc3cc(OCc4ncco4)ccn23)cc(OC(F)F)c1C(=O)NC1CC1
6. COc1cc(-c2cnc3cc(OCc4ccccc4)ncn23)cc(OC(F)F)c1C(=O)NC1CC1

Response given:
1: 0.01 to 10 nM; 2: 100 to 500 nM; 3: 10 to 100 nM; 4: 100 to 500 nM; 5: 10 to 100 nM; 6: 100 to 500 nM
